test system: KB; experiment: Cytotoxicity against human vincristine-sensitive KB cells assessed as cell viability after 72 hrs by MTT assay; assay type: functional, cell-based
Entries annotated with measured IC50
test_readout: IC50

>>> result("O=C1OC2CN3CCC[C@]45CC[C@@]6(Nc7ccccc7[C@@]26[C@@H]34)[C@@H]1C5 (stereo partly drawn)")
"> 25 µg/mL"
>>> result("CC[C@@]12CCCN3CCc4c(n(c5ccccc45)[C@H](c4ccc5c(c4)N[C@@]46CC[C@]7(CCCN8CC[C@]54[C@@H]87)C[C@H]6C(=O)O)C1)[C@H]32")
"> 25 µg/mL"
>>> result("COC(=O)[C@@H]1C[C@@]23CCCN4CC[C@@]5(c6ccc([C@@H]7C[C@@]8([C@@H](C)O)CCCN9CCc%10c(n7c7ccccc%107)[C@H]98)cc6N[C@]15CC2)[C@@H]43")
"28.8 µM"

Provenance of the data: ChEMBL document CHEMBL3779857
